# DC50 per record follows
Target: CDK2 (Homo sapiens, UniProt P24941)
Construct: endogenous in cells; host or cells: OVCAR-8
Assay: CDK2 degradation by immunoblotting in OVCAR-8 cells
Assay type: cell-based
Conditions: 24 h

Worked cases, DC50 given:
{"columns": ["compound", "test-readout", "assay-result"],
 "data": [
  ["CC(C)NC(=O)O[C@@H]1CC[C@H](c2cc(NC(=O)c3cnn(CCCCCCCCCCCc4ccc5c(c4)n(C)c(=O)n5C4CCC(=O)NC4=O)c3)[nH]n2)C1 (some centres unmarked)", "DC50", "0.01 to 0.1 µM"],
  ["CN[C@@H](C)C(=O)N[C@H](C(=O)N1CCC[C@H]1c1nc(C(=O)c2cccc(OCCCCCCCCCCCn3cc(C(=O)Nc4cc([C@H]5CC[C@@H](OC(=O)NC(C)C)C5)n[nH]4)cn3)c2)cs1)C1CCCCC1", "DC50", "1 to 5 µM"],
  ["CC(C)NC(=O)O[C@@H]1CC[C@H](c2cc(NC(=O)c3cnn(CCCCCCCCCCCc4cccn5c(N6CCC(=O)NC6=O)cnc45)c3)n[nH]2)C1", "DC50", "0.01 to 0.1 µM"],
  ["Cc1cc(S(=O)(=O)N2CCC(CN(C)C3CCN(c4cccc5c4n(C)c(=O)n5C4CCC(=O)NC4=O)CC3)CC2)ccc1Nc1ncc2ccc(=O)n(C3CCCC3)c2n1 (centres unmarked)", "DC50", "< 0.01 µM"],
  ["Cc1cc(S(=O)(=O)NCCOC2CC3(C2)CN(Cc2ccc4c(c2)n(C)c(=O)n4C2CCC(=O)NC2=O)C3)ccc1Nc1ncc2ccc(=O)n(C3CCCC3)c2n1 (centres unmarked)", "DC50", "0.01 to 0.1 µM"]
]}

What does the record list as DC50 for CC(C)NC(=O)O[C@@H]1CC[C@H](c2cc(NC(=O)c3cc(COCCCCCCCCCc4ccc5c(c4)n(C)c(=O)n5[C@H]4CCC(=O)NC4=O)nn3C)n[nH]2)C1 ?
< 0.01 µM

What does the record list as DC50 for Cc1cc(S(=O)(=O)NCCOCCOCCOCCOCCCc2ccc3c(c2)n(C)c(=O)n3C2CCC(=O)NC2=O)ccc1Nc1ncc2c(C)cc(=O)n(C3CCCC3)c2n1 (centres unmarked) ?
> 5 µM

What does the record list as DC50 for CC(C)NC(=O)O[C@@H]1CC[C@H](c2cc(NC(=O)c3cnn(CCCCCCCCCCCc4cccc5c4n(C)c(=O)n5C4CCC(=O)NC4=O)c3)[nH]n2)C1 (some centres unmarked) ?
0.01 to 0.1 µM

What does the record list as DC50 for Cc1cc(S(=O)(=O)NCCOCCOCCCc2ccc3c(c2)n(C)c(=O)n3C2CCC(=O)NC2=O)ccc1Nc1ncc2ccc(=O)n(C3CCCC3)c2n1 (centres unmarked) ?
< 0.01 µM

What does the record list as DC50 for Cc1cc(S(=O)(=O)NCCOCCOCCCc2ccc3c(c2)n(C)c(=O)n3C2CCC(=O)NC2=O)ccc1Nc1ncc2cc(C(F)F)c(=O)n([C@@H]3CCC[C@@]3(C)O)c2n1 (some centres unmarked) ?
< 0.01 µM

What does the record list as DC50 for Cc1cc(S(=O)(=O)NCCOC2CCC3(CC2)CCN(CCCc2ccc4c(c2)n(C)c(=O)n4C2CCC(=O)NC2=O)CC3)ccc1Nc1ncc2ccc(=O)n(C3CCCC3)c2n1 (centres unmarked) ?
< 0.01 µM

----------
Molecular target: CDK2 (Homo sapiens, UniProt P24941)
Construct: endogenous in cells; host or cells: OVCAR-8
Assay: CDK2 degradation by immunoblotting in OVCAR-8 cells
Format: cell-based
Conditions: 24 h
# DC50 per record follows

Worked cases, DC50 given:
{"columns": ["molecule", "DC50"],
 "data": [
  ["CC(C)NC(=O)O[C@@H]1CC[C@H](c2cc(NC(=O)Cc3cnn(CCCCCCCCCc4ccc5c(c4)n(C)c(=O)n5C4CCC(=O)NC4=O)c3)[nH]n2)C1 (some centres unmarked)", "10 to 100 nM"],
  ["Cc1cc(S(=O)(=O)NCCO[C@H]2CC[C@H](N(C)CC3CCN(c4ccc5c(c4)n(C)c(=O)n5C4CCC(=O)NC4=O)CC3)CC2)ccc1Nc1ncc2ccc(=O)n(C3CCCC3)c2n1 (some centres unmarked)", "< 10 nM"],
  ["CC(C)NC(=O)O[C@H]1CC[C@@H](c2cc(NC(=O)c3ccnn3CCN3CCN(CCOCCCc4ccc5c(c4)n(C)c(=O)n5C4CCC(=O)NC4=O)CC3)[nH]n2)C1 (some centres unmarked)", "1000 to 5000 nM"],
  ["CC(C)NC(=O)O[C@@H]1CC[C@H](c2cc(CC(=O)c3cnn(CCOCCOCCOCCCc4ccc5c(N6CCC(=O)NC6=O)cncc5c4)c3)[nH]n2)C1", "100 to 1000 nM"],
  ["CC(C)NC(=O)O[C@@H]1CC[C@H](c2cc(NC(=O)c3cc(COCCCCCCCCCc4cccc5c4n(C)c(=O)n5[C@H]4CCC(=O)NC4=O)nn3C)n[nH]2)C1", "< 10 nM"]
]}

What does the record list as DC50 for CC(C)NC(=O)O[C@@H]1CC[C@H](c2cc(NC(=O)c3cnn(CCOCCOCCOCCCc4cccc5c4n(C)c(=O)n5C4CCC(=O)NC4=O)c3)n[nH]2)C1 (some centres unmarked) ?
10 to 100 nM

What does the record list as DC50 for CC(C)NC(=O)O[C@@H]1CC[C@H](c2cc(NC(=O)Cc3cnn(CCCCCCCc4ccc5c(c4)n(C)c(=O)n5C4CCC(=O)NC4=O)c3)n[nH]2)C1 (some centres unmarked) ?
10 to 100 nM

What does the record list as DC50 for CC(C)NC(=O)O[C@@H]1CC[C@H](c2cc(NC(=O)c3cnn(CCOCCOCCOCCCc4ccn5c(N6CCC(=O)NC6=O)cnc5c4)c3)n[nH]2)C1 ?
100 to 1000 nM

What does the record list as DC50 for CC(C)NC(=O)O[C@H]1CC[C@@H](c2cc(NC(=O)c3ccnn3CCOCCOCCOCCOCCCc3ccc4c(c3)n(C)c(=O)n4C3CCC(=O)NC3=O)n[nH]2)C1 (some centres unmarked) ?
10 to 100 nM

What does the record list as DC50 for Cc1cc(S(=O)(=O)N[C@H]2CC[C@H](OCCOCCCc3ccc4c(c3)n(C)c(=O)n4C3CCC(=O)NC3=O)CC2)ccc1Nc1ncc2ccc(=O)n(C3CCCC3)c2n1 (some centres unmarked) ?
< 10 nM

What does the record list as DC50 for CC(C)NC(=O)O[C@@H]1CC[C@H](c2cc(NC(=O)c3cnn(CCOCCOCCOCCCc4ccc5c(c4)n(C)c(=O)n5C4CCC(=O)NC4=O)c3)n[nH]2)C1 (some centres unmarked) ?
10 to 100 nM

----------
Molecular target: CDK2 (Homo sapiens)
Construct: endogenous in cells; host or cells: OVCAR-8
Experiment: CDK2 degradation by immunoblotting in OVCAR-8 cells
Assay type: cell-based

{"columns": ["compound", "CDK2 DC50, (OVCAR-8, 24 h)"],
 "data": [
  ["Cn1c(=O)n(C2CCC(=O)NC2=O)c2ccc(CCCCCCCCCCCC(=O)N3CCC(Nc4ncc5cc(C(F)F)c(=O)n([C@@H]6CCC[C@@]6(C)O)c5n4)CC3)cc21 (stereo partly drawn)", "inactive"],
  ["CC(C)NC(=O)O[C@@H]1CC[C@H](c2cc(NC(=O)Cc3cnn(C4CCC(CN(C)C5CCN(Cc6cccc7c6n(C)c(=O)n7C6CCC(=O)NC6=O)CC5)CC4)c3)n[nH]2)C1 (stereo partly drawn)", "inactive"],
  ["CC(C)NC(=O)O[C@@H]1CC[C@H](c2cc(NC(=O)c3ccnn3CCCCCCCCCCCCc3cccc4c3n(C)c(=O)n4C3CCC(=O)NC3=O)n[nH]2)C1 (stereo partly drawn)", "inactive"]
]}

----------
Molecular target: CDK1 (Homo sapiens, UniProt P06493)
Construct: endogenous in cells; host or cells: OVCAR-8
Sequence (P06493 whole entry): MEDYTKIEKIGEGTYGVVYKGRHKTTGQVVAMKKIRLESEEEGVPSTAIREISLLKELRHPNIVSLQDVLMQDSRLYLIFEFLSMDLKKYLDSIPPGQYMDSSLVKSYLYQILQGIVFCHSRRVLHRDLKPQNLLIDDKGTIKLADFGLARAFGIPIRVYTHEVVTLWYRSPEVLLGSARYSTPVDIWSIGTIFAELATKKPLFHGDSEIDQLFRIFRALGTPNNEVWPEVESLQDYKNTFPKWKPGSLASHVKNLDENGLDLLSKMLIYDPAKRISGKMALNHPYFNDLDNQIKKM
Experiment: CDK1 degradation by immunoblotting in OVCAR-8 cells
Assay type: cell-based
Details: 24 h
test-readout: DC50

Worked cases, DC50 given:
{"columns": ["molecule", "DC50"],
 "data": [
  ["Cc1cc(S(=O)(=O)NCCO[C@H]2CC[C@H](CN3CCC(c4ccc5c(c4)n(C)c(=O)n5C4CCC(=O)NC4=O)CC3)CC2)ccc1Nc1ncc2ccc(=O)n(C3CCCC3)c2n1 (some centres unmarked) [I-109]", "100 to 1000 nM"],
  ["CC(C)NC(=O)O[C@@H]1CC[C@H](c2cc(NC(=O)c3ccnn3CCOCCOCCOCCCc3ccc4c(c3)n(C)c(=O)n4C3CCC(=O)NC3=O)[nH]n2)C1 (some centres unmarked) [I-83]", "> 5000 nM"]
]}

// fetch CDK1 (Homo sapiens, UniProt P06493) DC50 for CC(C)NC(=O)O[C@@H]1CC[C@H](c2cc(NC(=O)Cc3cnn(CCCCCCCCCc4cccc5c4n(C)c(=O)n5C4CCC(=O)NC4=O)c3)[nH]n2)C1 (some centres unmarked) [I-104]
1000 to 5000 nM

// fetch CDK1 (Homo sapiens, UniProt P06493) DC50 for CC(C)NC(=O)O[C@@H]1CC[C@H](c2cc(NC(=O)c3cnn(CCCCCCCCCC#Cc4cccn5c(N6CCC(=O)NC6=O)cnc45)c3)n[nH]2)C1 [I-68]
> 5000 nM

// fetch CDK1 (Homo sapiens, UniProt P06493) DC50 for CC(C)NC(=O)O[C@@H]1CC[C@H](c2cc(NC(=O)c3cnn(CCCCCCCCCCCc4cccc5c4n(C)c(=O)n5C4CCC(=O)NC4=O)c3)[nH]n2)C1 (some centres unmarked) [I-97]
1000 to 5000 nM

// fetch CDK1 (Homo sapiens, UniProt P06493) DC50 for CC(C)NC(=O)O[C@@H]1CC[C@H](c2cc(NC(=O)Cc3cnn(CCCCCCCc4ccc5c(c4)n(C)c(=O)n5C4CCC(=O)NC4=O)c3)n[nH]2)C1 (some centres unmarked) [I-103]
> 5000 nM

// fetch CDK1 (Homo sapiens, UniProt P06493) DC50 for Cc1cc(S(=O)(=O)NCCO[C@H]2CC[C@H](N(C)CC3CCN(c4ccc5c(c4)n(C)c(=O)n5C4CCC(=O)NC4=O)CC3)CC2)ccc1Nc1ncc2ccc(=O)n(C3CCCC3)c2n1 (some centres unmarked) [I-117]
100 to 1000 nM

// fetch CDK1 (Homo sapiens, UniProt P06493) DC50 for CC(C)NC(=O)O[C@@H]1CC[C@H](c2cc(NC(=O)c3cc(COCCCCCCCCCc4cccc5c4n(C)c(=O)n5[C@H]4CCC(=O)NC4=O)nn3C)n[nH]2)C1 [I-100]
100 to 1000 nM

// fetch CDK1 (Homo sapiens, UniProt P06493) DC50 for Cc1cc(S(=O)(=O)NCCOCCOCCOCCOCCCc2cccc3c2n(C)c(=O)n3C2CCC(=O)NC2=O)ccc1Nc1ncc(Br)c(Nc2cccc(F)c2C(N)=O)n1 (centres unmarked) [I-37]
1000 to 5000 nM

// fetch CDK1 (Homo sapiens, UniProt P06493) DC50 for Cc1cc(S(=O)(=O)NCCOCCOCCOCCOCCCc2ccc3c(c2)n(C)c(=O)n3C2CCC(=O)NC2=O)ccc1Nc1ncc2cc(C(F)F)c(=O)n([C@@H]3CCC[C@@]3(C)O)c2n1 (some centres unmarked) [I-7]
> 5000 nM

// fetch CDK1 (Homo sapiens, UniProt P06493) DC50 for CC(C)NC(=O)O[C@@H]1CC[C@H](c2cc(NC(=O)c3cnn(CCOCCOCCOCCCc4ccc5c(c4)n(C)c(=O)n5C4CCC(=O)NC4=O)c3)n[nH]2)C1 (some centres unmarked) [I-75]
> 5000 nM
